All values here come from patent US8685992B2.

biological target: UniProtKB Q9BY41; experiment: HDAC8 fluorogenic peptide deacetylation assay; assay type: biochemical; details: human HDAC8, 50 μM substrate, 30° C., 2 h; read-out: IC50 (nM) of enzyme activity HDAC8
Sequence (Q9BY41 whole entry): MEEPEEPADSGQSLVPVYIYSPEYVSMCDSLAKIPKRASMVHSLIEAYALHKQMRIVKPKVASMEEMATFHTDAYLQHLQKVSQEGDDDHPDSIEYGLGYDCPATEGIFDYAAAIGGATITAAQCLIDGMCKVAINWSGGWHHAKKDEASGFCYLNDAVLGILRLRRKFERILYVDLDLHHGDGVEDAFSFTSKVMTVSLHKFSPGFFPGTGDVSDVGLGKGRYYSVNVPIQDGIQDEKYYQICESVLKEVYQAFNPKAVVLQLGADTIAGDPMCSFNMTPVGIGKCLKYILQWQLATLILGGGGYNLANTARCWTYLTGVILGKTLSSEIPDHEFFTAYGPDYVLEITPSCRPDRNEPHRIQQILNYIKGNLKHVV
Assay readout: IC50

Guide cases for IC50, answers given:
>  <Chemical string>
Nc1ccccc1NC(=O)c1ccc(CNC(=O)c2[nH]c(-c3ccsc3)cc2-c2ccc(O)cc2)cc1

>  <IC50>
> 5000 nM

$$$$
>  <Chemical string>
COc1ccc(-c2cc(-c3ccccc3)[nH]c2C(=O)NCc2ccc(C(=O)Nc3ccccc3N)cc2)cc1

>  <IC50>
> 5000 nM

$$$$
>  <Chemical string>
COc1ccc(-c2cc(-c3ccccc3)[nH]c2C(=O)NCc2ccc(C(=O)Nc3ccccn3)cc2)cc1

>  <IC50>
> 5000 nM

$$$$
>  <Chemical string>
COc1ccc(-c2cc(-c3ccccc3)[nH]c2C(=O)NCc2ccc(C(=O)Nc3ccccc3S)cc2)cc1

>  <IC50>
> 5000 nM

$$$$

Exercise: Give IC50 for `O=C(NO)c1ccc(CNC(=O)c2[nH]c(-c3ccc(O)cc3)cc2-c2ccsc2)cc1` tested on UniProtKB Q9BY41.
Solution: 64.1 nM

Exercise: Please indicate recorded IC50 of `COc1ccc(-c2cc(-c3ccsc3)c(C(=O)NCc3ccc(C(=O)NO)cc3)[nH]2)cc1` measured with UniProtKB Q9BY41.
Solution: 174 nM

Exercise: Give IC50; test system UniProtKB Q9BY41; compound `Nc1ccccc1NC(=O)c1ccc(CNC(=O)c2[nH]c(-c3ccc(O)cc3)cc2-c2ccsc2)cc1`
Solution: > 5000 nM

---

target: Human HDAC3/NcoR2 (Homo sapiens (Human)); assay: HDAC3 fluorogenic peptide deacetylation assay; type: biochemical; conditions: human HDAC3/NcoR2, 50 μM substrate, 30° C., 2 h; read-out: IC50 (nM) of enzyme activity HDAC3
Sequence (O15379 whole entry): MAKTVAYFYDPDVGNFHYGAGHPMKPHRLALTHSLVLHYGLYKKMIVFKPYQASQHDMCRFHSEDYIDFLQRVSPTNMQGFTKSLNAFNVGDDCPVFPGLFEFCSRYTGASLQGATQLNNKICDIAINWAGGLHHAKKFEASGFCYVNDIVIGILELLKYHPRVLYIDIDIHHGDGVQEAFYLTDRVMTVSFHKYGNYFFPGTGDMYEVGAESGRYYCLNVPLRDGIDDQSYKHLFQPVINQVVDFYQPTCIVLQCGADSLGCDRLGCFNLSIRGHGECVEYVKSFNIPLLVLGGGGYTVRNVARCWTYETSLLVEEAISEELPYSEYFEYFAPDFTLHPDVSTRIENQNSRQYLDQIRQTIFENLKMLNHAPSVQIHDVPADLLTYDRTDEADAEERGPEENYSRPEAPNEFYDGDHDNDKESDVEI
Sequence (Q9Y618 395-489 partner): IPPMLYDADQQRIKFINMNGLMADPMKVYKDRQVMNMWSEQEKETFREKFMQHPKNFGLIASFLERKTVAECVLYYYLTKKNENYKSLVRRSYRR
Just a reminder that ties go to NOT MET: only IC50 strictly below 600 nM counts as MET.

>  <Molecule>
O=C(NO)c1ccc(CNC(=O)c2[nH]c(-c3ccccc3)cc2-c2ccc(O)cc2)cc1 [Example 10]

>  <Group label>
MET

$$$$
>  <Molecule>
Nc1ccccc1NC(=O)c1ccc(CNC(=O)c2[nH]c(-c3ccc(O)cc3)cc2-c2ccoc2)cc1 [Example 37]

>  <Group label>
NOT MET

$$$$
>  <Molecule>
COc1ccc(-c2cc(-c3ccccc3)[nH]c2C(=O)NCc2ccc(C(=O)Nc3ncccn3)cc2)cc1 [Example 26]

>  <Group label>
NOT MET

$$$$
>  <Molecule>
COc1ccc(-c2cc(-c3ccccc3)[nH]c2C(=O)NCc2ccc(C(=O)Nc3ccccc3S)cc2)cc1 [Example 22]

>  <Group label>
NOT MET

$$$$
>  <Molecule>
Nc1ccccc1NC(=O)c1ccc(CNC(=O)c2[nH]c(-c3ccc(O)cc3)cc2-c2ccsc2)cc1 [Example 33]

>  <Group label>
NOT MET

$$$$
>  <Molecule>
Nc1ccccc1NC(=O)c1ccc(CNC(=O)c2[nH]c(-c3ccsc3)cc2-c2ccc(O)cc2)cc1 [Example 36]

>  <Group label>
NOT MET

$$$$

Exercise: A record lists COc1ccc(-c2cc(-c3ccoc3)c(C(=O)NCc3ccc(C(=O)NO)cc3)[nH]2)cc1 [Example 27] . Is its IC50 below 600 nM?
Solution: MET

Exercise: Strictly below 600 nM in IC50? Nc1ccccc1NC(=O)c1ccc(CNC(=O)c2[nH]c(-c3ccc(O)cc3)cc2-c2ccccc2)cc1 [Example 35]
Solution: NOT MET

Exercise: Please let me know if O=C(NO)c1ccc(CNC(=O)c2[nH]c(-c3cccs3)cc2-c2ccc(F)cc2)nc1 [Example 11] shows IC50 below 600 nM.
Solution: NOT MET

Exercise: Given COc1ccc(-c2cc(-c3ccccc3)[nH]c2C(=O)NCc2ccc(C(=O)Nc3ccccc3N)cc2)cc1 [Example 21] , is recorded IC50 strictly lower than 600 nM?
Solution: NOT MET

Exercise: Determine whether this molecule shows IC50 lower than 600 nM (ties excluded): Nc1ccccc1NC(=O)c1ccc(CNC(=O)c2[nH]c(-c3ccoc3)cc2-c2ccc(O)cc2)cc1 [Example 34]
Solution: NOT MET

Exercise: Take the molecule O=C(NO)c1ccc(CNC(=O)c2[nH]c(-c3ccoc3)cc2-c2ccc(O)cc2)cc1 [Example 9] and say whether its IC50 is less than 600 nM.
Solution: MET

Exercise: IC50 under 600 nM? Item: COc1ccc(-c2cc(-c3ccsc3)c(C(=O)NCc3ccc(C(=O)NO)cc3)[nH]2)cc1 [Example 28]
Solution: MET

Exercise: Dear reviewer, please state whether O=C(NO)c1ccc(CNC(=O)c2[nH]c(-c3ccc(O)cc3)cc2-c2ccoc2)cc1 [Example 15] has IC50 strictly beneath 600 nM.
Solution: MET

---

tested on: LoVo; test: Cancer cell growth inhibition, LoVo; type: cell-based, human; conditions: Colorectal Cancer, 72 h treatment
Assay readout: IC50
Just so you know, I need the unit written after the number.

Exercise: Using known records, supply IC50 for N.N.[Cl][Pt][Cl] [Cisplatin, reference compound]
Solution: 4.65 µM

---

Examples of compounds with documented IC50 follow.
test system: U87MG; test: Cancer cell growth inhibition, U87MG; format: cell-based, human; details: Homo sapiens, U-87 MG, Glioblastoma, 72 h treatment
Reply numerically in µM, unit not repeated.

Below: 4 compounds and their reported IC50.
>  <Chemical string>
O=C(NO)c1ccc(CNC(=O)c2[nH]c(-c3ccoc3)cc2-c2ccc(O)cc2)cc1

>  <Units text>
µM

>  <IC50>
10.8

$$$$
>  <Chemical string>
COc1ccc(-c2cc(-c3ccoc3)c(C(=O)NCc3ccc(C(=O)NO)cc3)[nH]2)cc1

>  <Units text>
µM

>  <IC50>
1.39

$$$$
>  <Chemical string>
COc1ccc(-c2cc(-c3ccsc3)c(C(=O)NCc3ccc(C(=O)NO)cc3)[nH]2)cc1

>  <Units text>
µM

>  <IC50>
8.96

$$$$
>  <Chemical string>
O=C(NO)c1ccc(CNC(=O)c2[nH]c(-c3ccc(O)cc3)cc2-c2ccsc2)cc1

>  <Units text>
µM

>  <IC50>
9.35

$$$$

Consider now this further compound.
Exercise: For the compound `O=C(NO)c1ccc(CNC(=O)c2[nH]c(-c3ccc(O)cc3)cc2-c2ccoc2)cc1` , give its reported IC50.
Solution: 6.56

---

molecular target: UniProtKB Q13547; experiment: HDAC1 fluorogenic peptide deacetylation assay; assay type: biochemical; conditions: human HDAC1, 50 μM substrate, 30° C., 2 h; read-out: IC50 (nM) of enzyme activity HDAC1
Sequence (Q13547 whole entry): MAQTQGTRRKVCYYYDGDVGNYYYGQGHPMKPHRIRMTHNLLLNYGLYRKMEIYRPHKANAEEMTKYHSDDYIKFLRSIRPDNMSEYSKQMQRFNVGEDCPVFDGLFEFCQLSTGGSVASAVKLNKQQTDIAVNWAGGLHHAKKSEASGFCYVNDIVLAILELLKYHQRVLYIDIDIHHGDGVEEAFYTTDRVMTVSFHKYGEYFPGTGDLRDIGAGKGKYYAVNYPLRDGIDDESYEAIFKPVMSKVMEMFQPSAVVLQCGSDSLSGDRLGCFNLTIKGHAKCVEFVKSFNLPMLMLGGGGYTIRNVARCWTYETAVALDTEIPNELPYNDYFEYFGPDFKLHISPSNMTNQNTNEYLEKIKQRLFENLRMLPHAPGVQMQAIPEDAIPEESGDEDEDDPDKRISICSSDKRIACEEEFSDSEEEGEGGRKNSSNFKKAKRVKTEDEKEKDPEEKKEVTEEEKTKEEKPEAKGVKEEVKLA
Assay readout: IC50 (nM)
Answer format: numeric, nM implied, no suffix.

Study these solved cases before continuing.
>  <Chemical string>
Nc1ccccc1NC(=O)c1ccc(CNC(=O)c2[nH]c(-c3ccsc3)cc2-c2ccc(O)cc2)cc1

>  <IC50 [nM]>
222

$$$$
>  <Chemical string>
Nc1ccccc1NC(=O)c1ccc(CNC(=O)c2[nH]c(-c3ccoc3)cc2-c2ccc(O)cc2)cc1

>  <IC50 [nM]>
86

$$$$
>  <Chemical string>
Nc1ccccc1NC(=O)c1ccc(CNC(=O)c2[nH]c(-c3ccc(O)cc3)cc2-c2ccoc2)cc1

>  <IC50 [nM]>
332

$$$$
>  <Chemical string>
O=C(NO)c1ccc(CNC(=O)c2[nH]c(-c3ccoc3)cc2-c2ccc(F)cc2)cc1

>  <IC50 [nM]>
384

$$$$
>  <Chemical string>
COc1ccc(-c2cc(-c3ccccc3)[nH]c2C(=O)NCc2ccc(C(=O)Nc3ccccc3N)cc2)cc1

>  <IC50 [nM]>
390

$$$$

Exercise: Give measured IC50 for `O=C(NO)c1ccc(CNC(=O)c2[nH]c(-c3cccs3)cc2-c2ccc(F)cc2)nc1` (UniProtKB Q13547).
Solution: 744

Exercise: Determine reported IC50 for `O=C(NO)c1ccc(CNC(=O)c2[nH]c(-c3ccoc3)cc2-c2ccc(O)cc2)cc1` ; test system: UniProtKB Q13547.
Solution: 378

Exercise: Provide IC50, tested on UniProtKB Q13547, for `COc1ccc(-c2cc(-c3ccsc3)c(C(=O)NCc3ccc(C(=O)NO)cc3)[nH]2)cc1` .
Solution: 184

Exercise: Recall the reported IC50 of `O=C(NO)c1ccc(CNC(=O)c2[nH]c(-c3ccccc3)cc2-c2ccc(O)cc2)cc1` on UniProtKB Q13547 and write it down.
Solution: 473

Exercise: Give reported IC50 for `Nc1ccccc1NC(=O)c1ccc(CNC(=O)c2[nH]c(-c3ccc(O)cc3)cc2-c2ccccc2)cc1` (UniProtKB Q13547)
Solution: 108

Exercise: State IC50 (UniProtKB Q13547) of `COc1ccc(-c2cc(-c3ccoc3)c(C(=O)NCc3ccc(C(=O)NO)cc3)[nH]2)cc1` .
Solution: 71

Exercise: Tell me its IC50 on UniProtKB Q13547: `O=C(NO)c1ccc(CNC(=O)c2[nH]c(-c3ccc(O)cc3)cc2-c2ccsc2)cc1`
Solution: 84.2

Exercise: System UniProtKB Q13547. Read-out IC50. Item `Nc1ccccc1NC(=O)c1ccc(CNC(=O)c2[nH]c(-c3ccc(O)cc3)cc2-c2ccsc2)cc1` . Report value.
Solution: 103
